biological target: HLA-A*68:01; assay: IEDB peptide-MHC binding, purified MHC/competitive/radioactivity; filed as Kd, often an IC50 or EC50 that approximates it; bounds were set here for any values at or beyond the usual limits of such assays; settings: source organism: Mammarenavirus guanaritoense
pKd: −log10 of the molar value.
experimental readout: pKd

IFFTTSLFLH 5.46

###

target: HLA-B*08:01; experiment: IEDB peptide-MHC binding, purified MHC/competitive/fluorescence; filed as Kd, often an IC50 or EC50 that approximates it; bounds were set here for any values at or beyond the usual limits of such assays; settings: source organism: Yersinia pestis CO92
pKd: −log10 of the molar value.
experimental readout: pKd

QQRPDLILV ≤ 5.30

###

biological target: HLA-A*24:02; assay: IEDB peptide-MHC binding, purified MHC/direct/fluorescence; filed as Kd, often an IC50 or EC50 that approximates it; bounds were set here for any values at or beyond the usual limits of such assays; details: source organism: Vibrio vulnificus
experimental readout: Kd

QSDIAGAIH ≥ 20 µM

###

biological target: HLA-A*33:01; assay: IEDB peptide-MHC binding, purified MHC/competitive/radioactivity; filed as Kd, often an IC50 or EC50 that approximates it; bounds were set here for any values at or beyond the usual limits of such assays; details: source organism: SARS coronavirus Tor2
The sequences listed here are annotated with their Kd.
experimental readout: Kd (µM)

VTLADAGFMK 11.7
DLPSGFNTLK 10.4
IQVTISSYK 7.95
MVMCGGSLY 4.62
TVWEVQGYK 0.129
AQCFKMFYK 0.878
LQFAYSNRNR 1.27
VSLLRSTSQK 2.54
AVDPAKAYK 3.42
AMDEFIQRYK 13.3

###

target: HLA-B*27:03; experiment: IEDB peptide-MHC binding, purified MHC/competitive/fluorescence; filed as Kd, often an IC50 or EC50 that approximates it; bounds were set here for any values at or beyond the usual limits of such assays; conditions: source organism: Orthohantavirus sinnombreense
experimental readout: Kd

HTVGLGQGY ≥ 20 µM

###

target: HLA-A*02:01; experiment: IEDB peptide-MHC binding, purified MHC/competitive/fluorescence; filed as Kd, often an IC50 or EC50 that approximates it; bounds were set here for any values at or beyond the usual limits of such assays; settings: source organism: Burkholderia pseudomallei 668
experimental readout: Kd

GIYGAVIPL ≤ 0.1 nM

###

biological target: HLA-C*12:03; assay: IEDB peptide-MHC binding, purified MHC/direct/fluorescence; filed as Kd, often an IC50 or EC50 that approximates it; bounds were set here for any values at or beyond the usual limits of such assays; details: source organism: Cryptosporidium parvum Iowa II
pKd: −log10 of the molar value.
experimental readout: pKd

FTWQHNYYL 6.47

###

target: HLA-B*53:01; assay: IEDB peptide-MHC binding, purified MHC/competitive/radioactivity; filed as Kd, often an IC50 or EC50 that approximates it; bounds were set here for any values at or beyond the usual limits of such assays; details: source organism: Triticum aestivum
pKd: −log10 of the molar value.
experimental readout: pKd

FPQPQLPY 5.98

###

molecular target: HLA-B*83:01; experiment: IEDB peptide-MHC binding, purified MHC/competitive/fluorescence; filed as Kd, often an IC50 or EC50 that approximates it; bounds were set here for any values at or beyond the usual limits of such assays; conditions: source organism: Giardia lamblia ATCC 50803
pKd: −log10 of the molar value.
experimental readout: pKd

MTYLDGHPV ≤ 5.30

###

target: HLA-A*02:03; assay: IEDB peptide-MHC binding, purified MHC/competitive/radioactivity; filed as Kd, often an IC50 or EC50 that approximates it; bounds were set here for any values at or beyond the usual limits of such assays; conditions: source organism: Dengue virus 4 Dominica/814669/1981
experimental readout: Kd (nM)

SLGLILLKIV 14.7

###

target: HLA-B*57:01; assay: IEDB peptide-MHC binding, purified MHC/direct/fluorescence; filed as Kd, often an IC50 or EC50 that approximates it; bounds were set here for any values at or beyond the usual limits of such assays; conditions: source organism: West Nile virus
experimental readout: Kd

FTRYRKEAI ≥ 20 µM

###

target: HLA-B*27:03; experiment: IEDB peptide-MHC binding, purified MHC/direct/fluorescence; filed as Kd, often an IC50 or EC50 that approximates it; bounds were set here for any values at or beyond the usual limits of such assays; settings: source organism: Yersinia pestis CA88-4125
experimental readout: Kd

QQRPDLILV ≥ 20 µM

###

target: HLA-C*12:03; experiment: IEDB peptide-MHC binding, purified MHC/direct/fluorescence; filed as Kd, often an IC50 or EC50 that approximates it; bounds were set here for any values at or beyond the usual limits of such assays; settings: source organism: Mycobacterium tuberculosis variant bovis BCG str. Pasteur 1173P2
pKd: −log10 of the molar value.
experimental readout: pKd

FTRDTGATL ≥ 9.00

###

target: HLA-B*40:01; assay: IEDB peptide-MHC binding, purified MHC/direct/fluorescence; filed as Kd, often an IC50 or EC50 that approximates it; bounds were set here for any values at or beyond the usual limits of such assays; conditions: source organism: Salmonella enterica
pKd: −log10 of the molar value.
experimental readout: pKd

EHFYWGSVF ≤ 4.70

###

target: HLA-A*24:02; assay: IEDB peptide-MHC binding, purified MHC/competitive/fluorescence; bounds were set here for any values at or beyond the usual limits of such assays; details: source organism: Vaccinia virus WR
pIC50: −log10 of the molar value.
The sequences listed here are annotated with their pIC50.
experimental readout: pIC50

IEILNTIQF ≤ 3.51
GILPWTKIS ≤ 3.88
KSINVEYRF 6.19

###

target: HLA-B*57:01; test: IEDB peptide-MHC binding, purified MHC/direct/fluorescence; filed as Kd, often an IC50 or EC50 that approximates it; bounds were set here for any values at or beyond the usual limits of such assays; conditions: source organism: Burkholderia thailandensis
pKd: −log10 of the molar value.
experimental readout: pKd

WADMPLHQW 6.33

###

biological target: HLA-B*38:01; assay: IEDB peptide-MHC binding, purified MHC/competitive/fluorescence; filed as Kd, often an IC50 or EC50 that approximates it; bounds were set here for any values at or beyond the usual limits of such assays; conditions: source organism: Salmonella enterica subsp. enterica serovar Typhi
experimental readout: Kd

MSAIVSCRY ≥ 20 µM

###

target: HLA-B*83:01; assay: IEDB peptide-MHC binding, purified MHC/competitive/fluorescence; filed as Kd, often an IC50 or EC50 that approximates it; bounds were set here for any values at or beyond the usual limits of such assays; conditions: source organism: Listeria monocytogenes serotype 4b str. CLIP 80459
pKd: −log10 of the molar value.
experimental readout: pKd

YTYDLAEYR ≤ 5.30

###

target: HLA-B*45:06; experiment: IEDB peptide-MHC binding, purified MHC/competitive/fluorescence; filed as Kd, often an IC50 or EC50 that approximates it; bounds were set here for any values at or beyond the usual limits of such assays; details: source organism: Salmonella enterica subsp. enterica serovar Typhi
experimental readout: Kd

STFDLYVYR ≥ 5 µM

###

biological target: HLA-B*07:02; assay: IEDB peptide-MHC binding, purified MHC/direct/fluorescence; filed as Kd, often an IC50 or EC50 that approximates it; bounds were set here for any values at or beyond the usual limits of such assays; conditions: source organism: Orthohantavirus hantanense
pKd: −log10 of the molar value.
experimental readout: pKd

TPGRYRTAV ≥ 9.00

###

molecular target: HLA-A*32:01; experiment: IEDB peptide-MHC binding, purified MHC/competitive/radioactivity; filed as Kd, often an IC50 or EC50 that approximates it; bounds were set here for any values at or beyond the usual limits of such assays; details: source organism: Dengue virus 2 Jamaica/1409/1983
experimental readout: Kd

IHAKHEWMTT 5.23 µM
MTLGMCCII 2.59 µM

###

The sequences listed here are annotated with their pKd.
molecular target: HLA-B*40:02; assay: IEDB peptide-MHC binding, purified MHC/competitive/radioactivity; filed as Kd, often an IC50 or EC50 that approximates it; bounds were set here for any values at or beyond the usual limits of such assays; conditions: source organism: SARS coronavirus Tor2
pKd: −log10 of the molar value.
experimental readout: pKd

REAACCHLA 7.01
GENAVIPKG 6.04
SEVAVLYQDV 6.87
AEIVDTVSA 7.13
CEKALKYLPI 7.52
FEIDKGIYQT 7.33
TEVVGNVIL 6.75
WEVGKPRPPL 7.73
QECNNMHLST 6.23
FEHIVYGDF 6.11

###

biological target: HLA-B*15:01; experiment: IEDB peptide-MHC binding, purified MHC/competitive/radioactivity; filed as Kd, often an IC50 or EC50 that approximates it; bounds were set here for any values at or beyond the usual limits of such assays; conditions: source organism: Vaccinia virus WR
The sequences listed here are annotated with their Kd.
experimental readout: Kd (nM)

ISIKVKNHI 5600
YQNHGFVSF 0.173
TSNWTGNYF 7730
YIILFILFF 5240
NIAFLDESF 822
LIIYYQLAG 1290
KIYNVTNPF 2.72
MSRGYFEHM 30.8
LSCSVCNSL 386
QSKSSLLHA 405

Origin of measurements: the Immune Epitope Database (IEDB)
